Where do the numbers come from? From patent US9890188B2.

In this section, each of the molecules is paired with its reported EC50.
# System: Human rhinovirus 1B
# experimental-protocol: Picornavirus assay: human rhinovirus 1B cytopathic effect in HeLa-OHIO cells, CellTiter-Glo readout
# Assay type: cell-based
# conditions-used: Rhinovirus A, 96 h, compound and virus added together, 4 d at 33° C.
# Protocol: HeLa-OHIO cells (Sigma-Aldrich, St. Louis, Mo.) were plated in 96 well plates at a density of 1.5×10^5 cells per well in assay media (MEM without phenol red or L-glutamine, supplemented with 1% FBS, 1% penicillin/streptomycin, 2 mM GlutaGro, and 1×MEM nonessential amino acids, all from Cellgro, Manassas, Va.). Assay setup took place after allowing cells to adhere for 24 h. […] Luminescence was measured on a Victor X3 multi-label plate reader. […]

# mol, endpoint-name, endpoint-value
rows = [
    ("[N-]=[N+]=NC[C@]1(CO)O[C@@H](n2ccc(N)nc2=O)C[C@@H]1O", "EC50", "< 1 µM"),
    ("Nc1ccn([C@@H]2O[C@@](CO)(CCl)[C@@H](O)[C@@H]2F)c(=O)n1", "EC50", "< 1 µM"),
]

Okay, next one:
The measured EC50 associated with C=C[C@]1(CO)O[C@@H](n2ccc(N)nc2=O)[C@@H](F)[C@@H]1O reads < 1 µM
